As shown below, each of these compounds has a reported Plasma (0.1 μM), activity in % of control value.
tgt: Dopamine beta hydroxylase (Homo sapiens, UniProt P09172)
Construct: 125 μl of plasma; tissue Instituto Português do Sangue Transplantação; host or cells: human plasma from healthy donors
Sequence (P09172 40-617 limits assumed): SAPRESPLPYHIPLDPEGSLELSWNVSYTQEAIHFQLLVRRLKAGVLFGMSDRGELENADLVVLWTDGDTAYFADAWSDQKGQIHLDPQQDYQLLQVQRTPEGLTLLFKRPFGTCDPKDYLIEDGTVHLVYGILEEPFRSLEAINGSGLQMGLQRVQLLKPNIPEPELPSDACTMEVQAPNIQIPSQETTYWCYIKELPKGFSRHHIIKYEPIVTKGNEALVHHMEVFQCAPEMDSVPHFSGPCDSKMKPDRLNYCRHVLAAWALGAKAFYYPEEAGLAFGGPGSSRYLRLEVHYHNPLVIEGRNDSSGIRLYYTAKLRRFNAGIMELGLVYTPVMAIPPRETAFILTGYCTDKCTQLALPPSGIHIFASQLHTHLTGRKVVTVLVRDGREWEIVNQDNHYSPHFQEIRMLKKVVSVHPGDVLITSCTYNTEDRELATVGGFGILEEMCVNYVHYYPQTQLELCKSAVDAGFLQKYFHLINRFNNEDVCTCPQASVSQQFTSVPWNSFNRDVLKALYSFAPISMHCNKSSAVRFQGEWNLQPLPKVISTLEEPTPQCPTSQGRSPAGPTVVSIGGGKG
assay.comment: Dopamine beta hydroxylase activity in human plasma
Format: biochemical
conditions: inhibitor 0.1 μM
Structures can show the parent of a compound that is named as a salt.

1. N#C/N=C(/NCc1[nH]c(=S)n2c1C[C@@H](c1c(F)ccc(Br)c1F)C2)N1CCCC1 : 12.5 % of control
2. Cn1c(CCC(=O)N2CCOCC2)c2n(c1=S)C[C@@H](c1c(F)ccc(F)c1F)C2 : 56.0 % of control
3. Cn1c(CC(=O)NC2CCOCC2)c2n(c1=S)C[C@@H](c1c(F)ccc(F)c1F)C2 : 48.4 % of control
4. O=C(Cc1[nH]c(=S)n2c1[C@@H]1C[C@]1(c1c(F)ccc(Cl)c1F)C2)N1CCC(F)(F)CC1 : 3.0 % of control

Which Plasma (0.1 μM), activity in % of control value is on record for Cn1c(CC(=O)N[C@@H]2CCCOC2)c2n(c1=S)C[C@@H](c1c(F)ccc(F)c1F)C2 ?
24.6 % of control

Which Plasma (0.1 μM), activity in % of control value is on record for Cn1c(CCC(=O)N[C@@H]2CCOC2)c2n(c1=S)C[C@@H](c1c(F)ccc(F)c1F)C2 ?
70.6 % of control

Which Plasma (0.1 μM), activity in % of control value is on record for CN(C(=O)Cc1c2n(c(=S)n1C)C[C@@]1(c3cc(Cl)ccc3F)C[C@@H]21)C1CCOC1 (some centres unmarked) ?
37.4 % of control

Which Plasma (0.1 μM), activity in % of control value is on record for Cn1c(CC(=O)N2CCCC2)c2n(c1=S)C[C@@]1(c3cc(Br)ccc3F)C[C@@H]21 ?
22.3 % of control

Which Plasma (0.1 μM), activity in % of control value is on record for Fc1cc(F)c(F)c([C@H]2Cc3c(CN4CCOCC4)[nH]c(=S)n3C2)c1F [Example 209, Hydrochloride] ?
60.3 % of control

Which Plasma (0.1 μM), activity in % of control value is on record for O=C(Cc1[nH]c(=S)n2c1C[C@H](c1c(F)ccc(F)c1F)C2)N[C@@H]1CCOC1 ?
63.1 % of control

Which Plasma (0.1 μM), activity in % of control value is on record for Cn1c(CC(N)=O)c2n(c1=S)C[C@@]1(c3cc(Br)ccc3F)C[C@@H]21 ?
51.4 % of control

###

tgt: Dopamine beta hydroxylase (Homo sapiens, UniProt P09172)
Construct: 125 μl of plasma; tissue Instituto Português do Sangue Transplantação; host or cells: human plasma from healthy donors
assay.comment: Dopamine beta hydroxylase activity in human plasma
Format: biochemical
conditions: inhibitor 0.01 μM
As shown below, each of these compounds has a reported Plasma (0.01 μM), activity in % of control value.

1. Cn1c(CCN2CCCC2)c2n(c1=S)C[C@@H](c1c(F)ccc(F)c1F)C2 : 92.5 % of control

Which Plasma (0.01 μM), activity in % of control value is on record for Cn1c(CCC(=O)N2CC3C(C2)C3(C)C)c2n(c1=S)C[C@@H](c1c(F)c(F)cc(F)c1F)C2 (stereo partly shown) ?
67.9 % of control

Which Plasma (0.01 μM), activity in % of control value is on record for CCOCCCc1[nH]c(=S)n2c1C[C@H](c1c(F)c(F)cc(F)c1F)C2 ?
84.5 % of control

Which Plasma (0.01 μM), activity in % of control value is on record for Cn1c(CCC(=O)Nc2ccccn2)c2n(c1=S)C[C@H](c1c(F)ccc(Cl)c1F)C2 ?
99.8 % of control

Which Plasma (0.01 μM), activity in % of control value is on record for Cn1c(CC(=O)NC2COC2)c2n(c1=S)C[C@@]1(c3cc(Br)ccc3F)C[C@@H]21 ?
62.7 % of control
